Source: patent US20250368745A1

Target: T1, human IL-18BP (interleukin-18 binding protein, isoform A) (human, UniProt O95998 31-194)
T1 sequence: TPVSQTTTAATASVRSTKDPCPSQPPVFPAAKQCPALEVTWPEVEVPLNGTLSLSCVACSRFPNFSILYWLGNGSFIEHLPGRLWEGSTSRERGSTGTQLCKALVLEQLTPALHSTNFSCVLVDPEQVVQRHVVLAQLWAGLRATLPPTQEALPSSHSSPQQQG
Test: cell-based or functional assay
measured_attribute: EC50 in PBMC Assay 1 (endogenous IL-18BP), IFNγ (nM)

[
  {
    "binder": "SA315a (antibody, human IgG1, V domains shown, humanized; human IgG1 (suffix a), kappa) VH: QVQLQESGPGLVKPSQTLSLTCTVSGYSITSDYNAHWIRQPPGKGLEWIGYIHYSGQTMYNPSLKSRVTISRDTSKNQFSLKLSSVTAADTAVYYCARNFGSIYVNYFDYWGQGTLVTVSS VL: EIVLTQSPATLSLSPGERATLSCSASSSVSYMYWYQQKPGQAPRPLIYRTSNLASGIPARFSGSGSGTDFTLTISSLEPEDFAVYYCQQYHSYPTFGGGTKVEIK",
    "unit_symbol": "nM",
    "value": 0.5
  },
  {
    "binder": "SA321a (antibody, human IgG1, V domains shown, humanized; human IgG1 (suffix a), kappa) VH: QVQLQESGPGLVKPSQTLSLTCTVSGYSITQDYNAHWIRQPPGKGLEWIGYIHYSGQTLYNPSLKSRVTISRDTSKNQFSLKLSSVTAADTAVYYCARNFGSIYVNYFDYWGQGTLVTVSS VL: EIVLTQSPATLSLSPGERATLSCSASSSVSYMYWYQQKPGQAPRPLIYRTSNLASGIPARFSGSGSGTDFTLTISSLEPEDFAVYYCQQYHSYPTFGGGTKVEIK",
    "unit_symbol": "nM",
    "value": 0.9
  },
  {
    "binder": "SA322a (antibody, human IgG1, V domains shown, humanized; human IgG1 (suffix a), kappa) VH: QVQLQESGPGLVKPSQTLSLTCTVSGYSITQDYNAHWIRQPPGKGLEWIGYIHYSGQTNYNPSLKSRVTISRDTSKNQFSLKLSSVTAADTAVYYCARNYGSIYVNYFDYWGQGTLVTVSS VL: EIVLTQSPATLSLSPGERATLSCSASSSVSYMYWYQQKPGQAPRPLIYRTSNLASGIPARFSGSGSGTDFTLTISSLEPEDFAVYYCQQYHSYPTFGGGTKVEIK",
    "unit_symbol": "nM",
    "value": 0.8
  }
]
